- assay.info: HepG2 cell viability effects, profiling panel, calcein-AM fluorescence, 48 h, basal (AID 1164); further: test concentration not given here
- condition.parameters: higher = more signal
observed.property: z-score
Just the number, please, no unit attached.

Please review the entries below; each comes with its answer.
O=C1NC(=O)C2C1C=CC(C(O)C(c1ccccc1)c1ccccc1)N2Nc1ccc(Cl)cc1Cl (stereo not drawn): -2.7
C=CCOC(=O)[C@@H]1[C@H]2C(=O)O[C@H](c3ccccc3)[C@H](c3ccccc3)N2[C@H](c2ccc(OCCOC(=O)[C@@H]3C[C@@H]4C(=O)N[C@@H](CCCCN(C)C)C(=O)N4[C@@H]3c3ccc(O)cc3)cc2)[C@@]12C(=O)Nc1ccc(I)cc12: 0.295
NC(=O)[C@@H]1[C@H]2C(=O)O[C@H](c3ccccc3)[C@H](c3ccccc3)N2[C@H](c2ccc(O)cc2)[C@@]12C(=O)Nc1ccc(C#CC3(O)CCCCCC3)cc12: 0.338

# compound "C=CCOC(=O)[C@H]1[C@@H]2C(=O)O[C@@H](c3ccccc3)[C@@H](c3ccccc3)N2[C@@H](c2ccc(OCCOC(=O)[C@H]3C[C@H]4C(=O)N5CCC[C@H]5C(=O)N4[C@H]3c3ccc(O)cc3)cc2)[C@]12C(=O)Nc1ccc(I)cc12" ; its z-score = -0.167

Entry "C=CCN1C(=O)[C@]2(O[C@H](CCO)[C@@H]([Si](C)(C)c3ccc(OC)cc3)[C@@H]2C)c2cc(N3C(=O)c4cccc5cccc3c45)ccc21" — recorded z-score = -4.63

Sample CCOC(=O)[C@H]1CC=C2CC1C(=O)N1CCC[C@@H]1[C@@H]2O[Si](C)(C)C(C)(C)C (stereo partly drawn) ; z-score observed: -1.43

"C=CCNC(=O)[C@H]1[C@@H]2C(=O)O[C@@H](c3ccccc3)[C@@H](c3ccccc3)N2[C@@H](c2ccccc2OCCO)[C@]12C(=O)Nc1ccc(C#CC3=CCCCC3)cc12" yielded z-score of -4.21

Record CCOC(=O)C1=CCC(c2ccccc2)N(S(=O)(=O)CC[Si](C)(C)C)C1 (stereo not drawn) . Reported z-score: 0.413

Lab note: "[N-]=[N+]=Nc1ccccc1C[C@]1(C(N)=O)N=C(c2ccc(OCCCO)cc2)O[C@H]1c1ccccc1" gave z-score of -0.0857

Reported z-score for "O=C1c2ccccc2[C@](Cc2ccccc2I)(C(=O)NC2CC2)[C@H](c2ccc(CO)cc2)N1Cc1ccccc1" was -0.236

Measured z-score, "CCCC[C@@H]1C[C@H]1[C@@H](NC(=O)c1ccco1)c1ccc(Cl)cc1" : -0.746

Lab book: z-score of "CC(C)(C)OC(=O)CC[C@@]1(C(=O)NCCN2CCOCC2)N=C(c2ccc(OCCCO)cc2)O[C@@H]1c1ccccc1N=[N+]=[N-]" noted as 1.33

====

- assay.info: binders of probe aFGF10 on microarray, primary screen, stem cell growth factor project, biochemical, small-molecule microarray, fluorescence 635/667 (AID 1071);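 further: score merges 667 nm spot intensity and signal to noise from triplicate slides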
- condition.parameters: higher = more signal
observed.property: composite z-score
Keep the answer to the number alone.

For orientation, consider the following solved cases.
CCCCCN1CC=CC23O[C@@H]4/C=C\CCCOC(=O)C4[C@H]2C(=O)N(C(CO)C(C)C)[C@@H]3C1=O (some centres not stated): -0.106
O=C1NC(=O)C2C1C=CC(C(O)c1cccc3ccccc13)N2Nc1ccccn1 (configuration not stated): 0.357
COC(=O)[C@@]1(Cc2ccc(OC)cc2)[C@H]2c3cc(C(=O)N4CCCC4)n(Cc4ccc(OC)c(OC)c4)c3C[C@H]2CN1C(=O)c1ccccc1: 0.199
O=C1C2C=CC(C(O)c3c(F)cccc3Cl)N(Nc3ccccc3)C2C(=O)N1c1ccccc1 (configuration not stated): 0.354
CN1C(=O)C2C=CC(C(O)c3ccc(I)cc3)N(N3CCCCC3)C2C1=O (configuration not stated): 1.09
C=CCOC(=O)[C@H]1[C@@H]2C(=O)O[C@@H](c3ccccc3)[C@@H](c3ccccc3)N2[C@@H](c2ccc(OCCOC(=O)[C@H]3C[C@H]4C(=O)N[C@@H](CC(C)C)C(=O)N4[C@H]3c3ccc(O)cc3)cc2)[C@]12C(=O)Nc1ccc(I)cc12: 0.69

Shifting focus to the compound that follows.
Per the records, this compound ( O=C(C1N=C(c2ccc(OCCCO)cc2)N(c2ccccc2)O1)N1CCOCC1 (configuration not stated) ) has composite z-score equal to 1.28
